- Study target: B-Raf(V599E) kinase (Homo sapiens, UniProt P15056, V600E)
- Sequence (P15056 with tags, fused parts or gaps V600E): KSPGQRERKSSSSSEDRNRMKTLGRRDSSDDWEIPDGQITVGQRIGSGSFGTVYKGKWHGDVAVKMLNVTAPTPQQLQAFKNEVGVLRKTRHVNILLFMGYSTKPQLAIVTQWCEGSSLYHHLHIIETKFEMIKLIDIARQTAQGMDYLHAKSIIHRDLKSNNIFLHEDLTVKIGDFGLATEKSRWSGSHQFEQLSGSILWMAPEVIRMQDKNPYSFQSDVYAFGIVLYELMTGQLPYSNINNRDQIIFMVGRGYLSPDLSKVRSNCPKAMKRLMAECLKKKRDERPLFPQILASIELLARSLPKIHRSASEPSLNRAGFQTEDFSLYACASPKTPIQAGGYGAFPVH
- Experiment: B-Raf(V599E) kinase assay B1 (construct 1, MEK1 substrate, coupled spectrophotometric)
- Assay type: biochemical
Reported endpoint: IC50 (µM)
Numeric only. Scale: µM

* CC(C)(C)c1ncc(NC(=O)Nc2cccc(Oc3cccnc3)c2)c(-c2ccccc2)n1 | 0.369
* COC(=O)Cc1cc(-n2nc(C(C)(C)C)cc2NC(=O)Nc2ccccc2)cc2ccccc12 | 0.02

Exam item: Given "CC(C)(C)c1cc(NC(=O)Nc2cccc(Cl)c2Cl)n(-c2cc(CN)c3ccccc3c2)n1" , state its recorded IC50.
Marked response: 0.0042

Exam item: Sample "CC(C)(C)c1cc(NC(=O)Nc2cccc(Oc3ccccc3)c2)n(-c2cccc(CC(N)=O)c2)n1" — what was its IC50?
Marked response: 0.0051

Exam item: Request the reported IC50 associated with "CC(C)(C)c1cc(NC(=O)Nc2ccccc2F)n(-c2cccc(CCC(=O)O)c2)n1"
Marked response: 0.014

Exam item: Fill in: IC50 of "CC(C)(C)c1cc(NC(=O)Nc2cccc(Cl)c2)n(-c2cccc(CO)c2)n1" is ___
Marked response: 0.047

Exam item: If you can, please state the reported IC50 value of "CC(C)(C)c1cc(NC(=O)Nc2cc(F)cc(F)c2F)n(-c2cc(CNC(N)=O)c3ccccc3c2)n1" .
Marked response: 0.003

Exam item: Report IC50 for "COc1ccc(-n2nc(C(C)(C)C)cc2NC(=O)Nc2cccc(C(F)(F)F)c2)cc1" please.
Marked response: 0.065

Exam item: Entry under review: "CC(C)(C)c1cc(NC(=O)Nc2cccc(Cl)c2Cl)n(-c2ccc3c(c2)CCNC3)n1" . Reported IC50?
Marked response: 0.0032

Exam item: Quick one: IC50 for "CC1(O)CCN(C(=O)Cc2ccc(-n3nc(C(C)(C)C)cc3NC(=O)Nc3cccc(Cl)c3Cl)cc2)CC1" ?
Marked response: 0.026

Exam item: Which IC50 reading was recorded for the compound "CC(C)(C)c1cc(NC(=O)Nc2cccc(Cl)c2Cl)n(-c2cccc(C#N)c2)n1" ?
Marked response: 0.0046

Exam item: For the compound "CC(C)(C)c1cc(NC(=O)Nc2cccc(Cl)c2)n(-c2cccc(CN)c2)n1" , what IC50 is on record?
Marked response: 0.061

Exam item: Would you mind telling me what IC50 value was observed for "CC(C)(C)c1cc(NC(=O)Nc2cccc(Cl)c2Cl)n(-c2ccc(C(=O)O)cc2)n1" ?
Marked response: 0.038

###

The entries below are paired with their reported pIC50.
- Study target: Abl kinase (Homo sapiens, UniProt P00519)
- Sequence (P00519 229-512): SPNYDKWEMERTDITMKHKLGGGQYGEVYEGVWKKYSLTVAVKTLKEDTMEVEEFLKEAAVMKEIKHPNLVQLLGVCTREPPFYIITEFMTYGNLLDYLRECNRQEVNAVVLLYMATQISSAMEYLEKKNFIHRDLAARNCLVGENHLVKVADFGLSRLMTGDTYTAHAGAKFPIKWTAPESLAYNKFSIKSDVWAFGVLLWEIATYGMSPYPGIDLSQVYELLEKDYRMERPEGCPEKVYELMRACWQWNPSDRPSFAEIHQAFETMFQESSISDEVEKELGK
- Experiment: Abl kinase assay A2 (as A1, 1.1 nM enzyme, 2 h pre-incubation, 0.5 mM ATP)
- Format: biochemical
- Condition: Method A2; read-out: Abl Data (IC50)
Note on pIC50: it is the negative log10 of concentration, concentration in mol/L.

Observe how each entry below is paired with its result.
- O=C1CCc2cc(-n3nc(C4CCCC4)cc3NC(=O)Nc3cccc(Oc4cccnc4)c3)ccc2N1: 7.32
- CNC(=O)c1cc(Oc2cccc(NC(=O)Nc3cc(C(C)(C)C)nn3-c3ccc4[nH]c(=O)ccc4c3)c2)ccn1: 7.51
- CC(C)(C)c1cc(NC(=O)Nc2cccc(Oc3cccnc3)c2)n(-c2cc(CN)c3ccccc3c2)n1: 8.70
- CC(C)(C)c1cc(NC(=O)Nc2cccc(Cl)c2Cl)n(-c2ccc3nc(N4CCNCC4)ccc3c2)n1: 5.96
- CC(C)(C)c1cc(NC(=O)Nc2cccc(Cl)c2Cl)n(-c2ccc3nc[nH]c(=O)c3c2)n1: 6.04
- CNC(=O)c1cc(Oc2ccc(NC(=O)Nc3cc(C(C)(C)C)nn3-c3ccc4nc(N5CC[C@@H](N(C)C)C5)ccc4c3)cc2)ccn1: 8.38

Below: the item to evaluate.
Exam item: Item under review: CC(C)(C)c1cc(NC(=O)Nc2cccc(Oc3cccnc3)c2)n(-c2ccc3c(c2)CC(C(=O)O)NC3)n1 (stereo not shown) . Reported pIC50?
Marked response: 8.52

###

Each entry below carries its recorded pIC50.
- Study target: UniProt Q16539
- Sequence (Q16539 1-360 isoform Q16539-2): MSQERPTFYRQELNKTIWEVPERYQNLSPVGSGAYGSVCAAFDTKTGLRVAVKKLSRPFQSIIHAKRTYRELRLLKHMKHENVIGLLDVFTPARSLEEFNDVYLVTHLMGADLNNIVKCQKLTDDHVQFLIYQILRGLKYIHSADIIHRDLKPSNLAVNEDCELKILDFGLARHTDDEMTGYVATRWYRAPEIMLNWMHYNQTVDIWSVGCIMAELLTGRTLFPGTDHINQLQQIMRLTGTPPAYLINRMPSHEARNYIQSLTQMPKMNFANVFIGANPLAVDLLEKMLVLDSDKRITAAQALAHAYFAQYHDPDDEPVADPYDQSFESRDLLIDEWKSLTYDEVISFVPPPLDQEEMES
- Experiment: P-38 alpha kinase assay P1 (coupled spectrophotometric, 2 h pre-incubation)
- Format: biochemical
- Condition: method P1 (2 h pre-incubation); read-out: P-38 Data
Remember, pIC50 is on a log scale: it is -log10 of the molar concentration.

These solved cases illustrate the format of a correct answer.
- CC(C)(C)c1cc(NC(=O)Nc2cccc3ccccc23)n(-c2cccc(CCO)c2)n1: 7.57
- CC(C)(C)c1cc(NC(=O)Nc2cc(F)c(F)cc2F)n(-c2cc(CC(=O)NCC(O)CO)c3ccccc3c2)n1 (stereo not shown): 7.17
- COC[C@@H]1CCCN1C(=O)Cc1ccc(-n2nc(C(C)(C)C)cc2NC(=O)Nc2cccc(Cl)c2Cl)cc1: 7.92
- CNC(=O)c1cc(Oc2ccc(NC(=O)Nc3cc(C(C)(C)C)nn3-c3ccc4[nH]c(=O)ccc4c3)cc2)ccn1: 7.14
- COC[C@@H]1CCCN1C(=O)Cc1cccc(-n2nc(C(C)(C)C)cc2NC(=O)Nc2cccc(Cl)c2Cl)c1: 6.82
- O=C(O)Cc1cccc(-n2nc(-c3ccccc3F)cc2NC(=O)N[C@H]2CCc3ccccc32)c1: 7.70

Exam item: Returns the measured pIC50 for the input compound. Input: "CC(C)(C)c1cc(NC(=O)Nc2cccc(Cl)c2Cl)n(-c2cc(CO)c3ccccc3c2)n1"
Marked response: 7.74

###

IC50 reference
- Study target: B-Raf(V599E) kinase (Homo sapiens, UniProt P15056, V600E)
- Experiment: B-Raf(V599E) kinase assay B1 (construct 1, MEK1 substrate, coupled spectrophotometric)
- Format: biochemical
Quick reminder: number only, in nM, skip the unit.

Examples with answers:
• CC(C)(C)c1cc(NC(=O)Nc2cc(F)cc(F)c2F)n(-c2ccc3c(c2)CCN3S(C)(=O)=O)n1 = 2.7
• CC(C)(C)c1cc(NC(=O)Nc2cccc(F)c2F)n(-c2ccc(CC(=O)O)cc2)n1 = 77
• CC(C)(C)c1cc(NC(=O)Nc2cccc(Cl)c2Cl)n(-c2cccc(CN)c2)n1 = 10

Moving on to another compound below.
Exam item: What value of IC50 has been recorded for this entry: "CC(C)(C)c1cc(NC(=O)Nc2ccc(F)c(F)c2F)n(-c2cc(CO)c3ccccc3c2)n1"
Marked response: 3.2

###

- Study target: Abl kinase (Homo sapiens, UniProt P00519)
- Experiment: Abl kinase assay A2 (as A1, 1.1 nM enzyme, 2 h pre-incubation, 0.5 mM ATP)
- Assay type: biochemical
- Condition: Method A2; read-out: Abl Data (IC50)
Measured log10 IC50, listed per entry for reference.
Heads up: the numbers are on a log10 scale; they represent IC50 in nM.

# count of solved cases: 5
- CC(C)(C)c1cc(NC(=O)Nc2ccc(-c3cccc4c3CNC4=O)cc2)n(-c2ccc3c(c2)CCN3)n1: 1.32
- CC(C)(C)c1cc(NC(=O)Nc2cccc(Oc3cccnc3)c2)n(-c2ccc3ncccc3c2)n1: 0.54
- CNC(=O)c1cc(Oc2ccc(NC(=O)Nc3cc(C(C)(C)C)nn3-c3ccc4nc(N5CCNCC5)ccc4c3)cc2)ccn1: 0.26
- CC(C)(C)c1cc(NC(=O)Nc2cccc(Cl)c2Cl)n(-c2ccc3cn[nH]c3c2)n1: 3.71
- Cn1c(=O)c(-c2cccc(NC(=O)Nc3cc(C(C)(C)C)nn3-c3ccc4[nH]ccc4c3)c2)cc2cncnc21: 1.04

Exam item: # get_value(readout='log10 IC50', item= "NC(=O)Cc1cccc(-c2ccc(C(F)(F)F)cc2NC(=O)Nc2ccc(-c3cccc4c3CNC4=O)cc2)c1" )
Marked response: 2.40

###

- Study target: UniProt P00519
- Experiment: Abl kinase assay A1 (pyruvate kinase/lactate dehydrogenase coupled, spectrophotometric)
- Format: biochemical
- Condition: Method A1; read-out: Abl Data (IC50)
pIC50: −log10 of the molar value.
pIC50 of 6 or higher: Fulfilled. Under 6: Not fulfilled.

Exam item: Decide: pIC50 of "CC(C)(C)c1cc(NC(=O)Nc2cccc(Cl)c2Cl)n(-c2ccc3c(c2)CCN3S(C)(=O)=O)n1" >= 6?
Marked response: Fulfilled

Exam item: Determine whether this compound has pIC50 no lower than 6: "CC(C)(C)c1cc(NC(=O)Nc2cccc(Cl)c2Cl)n(-c2ccc(C(C)(C)O)cc2)n1"
Marked response: Not fulfilled

Exam item: Confirm if pIC50 reported for the compound CC(C)(C)c1cc(NC(=O)Nc2cccc(Cl)c2Cl)n(-c2ccc3c(c2)CC(C(N)=O)NC3)n1 (centres unmarked) is 6 or above.
Marked response: Fulfilled

Exam item: Identify whether the reported pIC50 of the following compound is 6 or greater: "CC(C)(C)c1cc(NC(=O)Nc2ccc(F)cc2F)n(-c2ccc3c(c2)CCNC3)n1"
Marked response: Fulfilled

Exam item: Is it the case that "CC(C)(C)c1cc(NC(=O)Nc2cccc(Cl)c2Cl)n(-c2cccc(C(C)(C)O)c2)n1" has pIC50 reaching or exceeding 6?
Marked response: Not fulfilled

Exam item: Quick check, pIC50 >= 6? "CN(C)CCc1cccc(-n2nc(C(C)(C)C)cc2NC(=O)Nc2cccc(Cl)c2Cl)c1"
Marked response: Fulfilled

Exam item: Confirm if pIC50 reported for the compound "CC(C)(C)c1cc(NC(=O)Nc2cccc(Cl)c2Cl)n(-c2ccc3c(c2)C(=O)CC3)n1" is 6 or above.
Marked response: Fulfilled
